# SYSTEM NAME: GABAB receptor sites (Homo sapiens)
# Sequence (Q9UBS5 15-961 limits assumed): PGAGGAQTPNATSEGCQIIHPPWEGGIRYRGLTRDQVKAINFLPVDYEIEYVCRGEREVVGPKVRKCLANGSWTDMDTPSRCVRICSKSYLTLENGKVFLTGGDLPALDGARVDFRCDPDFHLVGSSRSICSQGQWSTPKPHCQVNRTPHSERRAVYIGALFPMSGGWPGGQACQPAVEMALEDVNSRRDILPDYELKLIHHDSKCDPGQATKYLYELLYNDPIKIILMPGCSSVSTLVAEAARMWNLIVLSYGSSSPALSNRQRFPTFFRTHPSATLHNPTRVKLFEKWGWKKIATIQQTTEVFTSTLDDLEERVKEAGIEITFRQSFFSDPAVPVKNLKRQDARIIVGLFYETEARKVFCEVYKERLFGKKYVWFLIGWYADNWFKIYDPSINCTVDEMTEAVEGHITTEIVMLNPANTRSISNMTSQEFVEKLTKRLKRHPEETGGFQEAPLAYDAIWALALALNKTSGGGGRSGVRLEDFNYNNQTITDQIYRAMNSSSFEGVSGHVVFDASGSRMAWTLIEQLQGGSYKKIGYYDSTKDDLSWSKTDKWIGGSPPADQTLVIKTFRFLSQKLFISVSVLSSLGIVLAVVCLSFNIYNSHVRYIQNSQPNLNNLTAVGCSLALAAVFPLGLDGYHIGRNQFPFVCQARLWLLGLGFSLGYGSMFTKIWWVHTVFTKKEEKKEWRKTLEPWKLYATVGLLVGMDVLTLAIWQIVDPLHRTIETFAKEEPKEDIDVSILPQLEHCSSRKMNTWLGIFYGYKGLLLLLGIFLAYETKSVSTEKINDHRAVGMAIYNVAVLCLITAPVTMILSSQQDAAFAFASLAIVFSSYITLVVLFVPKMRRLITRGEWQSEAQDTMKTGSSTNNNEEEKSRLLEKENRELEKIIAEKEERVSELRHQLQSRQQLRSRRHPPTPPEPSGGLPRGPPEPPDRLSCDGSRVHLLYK
# Sequence (O75899 42-941 partner): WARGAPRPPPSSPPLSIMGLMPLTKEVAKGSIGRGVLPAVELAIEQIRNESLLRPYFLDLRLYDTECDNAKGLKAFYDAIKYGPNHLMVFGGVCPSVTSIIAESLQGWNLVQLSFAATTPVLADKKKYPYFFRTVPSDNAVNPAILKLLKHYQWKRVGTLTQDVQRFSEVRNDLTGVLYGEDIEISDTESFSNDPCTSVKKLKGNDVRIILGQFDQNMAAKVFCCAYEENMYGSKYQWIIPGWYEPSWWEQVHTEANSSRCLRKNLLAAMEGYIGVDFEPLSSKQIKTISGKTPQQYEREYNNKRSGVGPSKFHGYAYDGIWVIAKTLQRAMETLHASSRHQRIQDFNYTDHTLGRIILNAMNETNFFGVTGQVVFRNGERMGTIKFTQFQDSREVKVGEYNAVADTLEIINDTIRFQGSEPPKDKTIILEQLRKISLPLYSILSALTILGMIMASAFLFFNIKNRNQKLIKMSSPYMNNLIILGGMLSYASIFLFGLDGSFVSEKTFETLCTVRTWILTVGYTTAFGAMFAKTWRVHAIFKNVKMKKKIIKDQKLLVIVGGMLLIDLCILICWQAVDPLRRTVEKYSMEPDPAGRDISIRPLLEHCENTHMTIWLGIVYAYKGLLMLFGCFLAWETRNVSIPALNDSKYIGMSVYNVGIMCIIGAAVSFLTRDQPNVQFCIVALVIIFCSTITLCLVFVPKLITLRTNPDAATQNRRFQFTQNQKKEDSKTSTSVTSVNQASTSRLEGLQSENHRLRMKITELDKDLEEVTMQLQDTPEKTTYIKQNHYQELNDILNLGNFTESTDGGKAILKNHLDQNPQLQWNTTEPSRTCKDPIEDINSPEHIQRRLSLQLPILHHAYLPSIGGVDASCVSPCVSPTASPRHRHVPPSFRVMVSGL
# EXPERIMENT SUMMARY: affinity towards GABAB receptor sites
# CONDITION SET: read-out: IC50-value at the GABAB receptor site
pIC50: −log10 of the molar value.

{"COMPOUND": "NCC(CP(O)O)c1ccc(Cl)cc1 (stereo not shown)", "pIC50": 7.46}
